Cited source for all entries: patent USRE46585

Let's look at some binders and their measured Ratio/FWT.
biological target: T1, FcRn-p3 fusion protein (human, UniProt P55899 24-297; P61769 21-119); experiment: phage ELISA pH6 (est.)
T1 construct: baculovirus expressed; coated on ELISA wells; not shown: amino terminal part of bacteriophage p3 protein and CVDE protein
T1 sequence (P55899 24-297, chain 1 of 2): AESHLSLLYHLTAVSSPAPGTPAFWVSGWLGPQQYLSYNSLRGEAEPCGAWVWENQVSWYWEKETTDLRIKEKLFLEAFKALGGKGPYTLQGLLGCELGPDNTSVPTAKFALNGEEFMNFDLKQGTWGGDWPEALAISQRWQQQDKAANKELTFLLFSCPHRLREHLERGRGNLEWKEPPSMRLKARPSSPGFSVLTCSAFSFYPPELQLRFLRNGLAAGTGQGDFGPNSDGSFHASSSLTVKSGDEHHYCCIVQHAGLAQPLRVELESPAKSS
T1 sequence (P61769 21-119, chain 2 of 2): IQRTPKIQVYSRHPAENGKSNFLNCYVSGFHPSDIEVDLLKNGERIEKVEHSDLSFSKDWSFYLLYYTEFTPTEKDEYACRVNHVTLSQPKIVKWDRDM
Give the quantity in fold, number only.

# binder, Ratio/FWT / fold
data = [
    ("T5A_25 (other, EU numbering) GPPCPAPELLGGPSVFLFPPKPKDTLMISRTPEVTCVVEDVSHEDPEVKFNWYVDGVEVHNAKTKPREEQYNSTYRVVSVLTVLHQDWLNGKEYKCKVSNKALPAPIEKTISKAKGQPREPRVYTLPPSRDELTKNQVSLTCLVRGFYPSDIVVEWESNGQPENNYKTTPPVLDSDGSFFLYSKLTVDKSRWQQGNVFSCSVMHEALHSHYTQKSLSLSPGK", 14.7),
    ("C6A_85 (other, EU numbering) CPPCPAPELLGGPSVFLFPPKPKDTLMISRTPEVTCVVVDVSHEDPEVKFNWYVDGVEVHNAKTKPREEQYNSTYRVVSALTVLHQDWLDGKEYKCKVSNKALPVPIEKTISKAKGQPREPQVYTLPPSRDELTKNQVSLTCLVKGFYPSDIAVEWESNGQPEKNYKTTPPVLDSDGSFFLYSKLTVDKSRWQQGNVFSCSVMHEALHYHYTQKSLSLSPGK", 23.8),
    ("T3A_10 (other, EU numbering) CPPCPAPELLGGPSVFLFPPKPKDTLMISRTPEVTCVVVDVSHEDPEVKFNWYVDGVEVHNAKTKPREEQYNSTYRVVSVLTVLHQDWLDGKEYKCKVSNKALPVPIEKTISKAKGQPREPQVYTLPPSRDELTKNQVSLTCLVKGFYPSDIAVEWESNGQPEKNYKTTPPVLDSDGSFFLYSKLTVDKSRWQQGNVFSCSVMHEALHYHYTQKSLSLSPGK", 7.8),
    ("T4A_44 (other, EU numbering) GPPCPAPELLGGPSVFLFPPKPKDTLMISRTPEVTCVVEDVSHEDPEVKFNWYVDGVEVHNAKTKPREEQYNSTYRVVSVLTVLHQDWLNGKEYKCKVSNKALPAPIEKTISKAKGQPREPQVYTLPPSRDELTKNQVSLTCLVKGFYPSDIVVEWESNGQPENNYKTTPPVLDSDGSLFLYSKLTVDKSRWQQGNVFSCSVMHEALHNHYTQKSLSLSPGK", 12),
]

Query: Give recorded Ratio/FWT. C5A_44 (other, EU numbering) CPPCPAPELLGGPSVFLFPPKPKDTLMISRTPEVTCVVVDVSHEDPEVKFNWYVDGVEVHNAKTKPREEQYNSTYRVVSVLTVLHQDWLDGKEYKCKVSNKALPAPIEKTISKAKGQPREPQVYTLPPSRDELTKNQVSLTCLVKGFYPSDIAVEWESNGQPEKNYKTTPPVLDSDGSFFLYSKLTVDKSRWQQGNVFSCSVMHEALHYHYTQKSLSLSPGK
Reply: 8.7

Query: Give recorded Ratio/FWT. C5A_75 (other, EU numbering) CPPCPAPELLGGPSVFLFPPKPKDTLMISRTPEVTCVVVDVSHEDPEVKFNWYVDGVEVHNAKTKPREEQYNSTYRVVSVLNVLHQDWLDGKEYKCKVSNKALPAPIEKTISKAKGQPREPQVYTLPPSRDELTKNQVSLTCLVKGFYPSDIAVEWESNGQPENNYKTTPPVLDSDGSFFLYSKLTVDKSRWQQGNVFSCSVMHEALHYHYTQKSLSLSPGK
Reply: 8.9

Query: Give recorded Ratio/FWT. C7A_22 (other, EU numbering) CPPCPAPELLGGPSVFLFPPKPKDTLMISRTPEVTCVVVDVSHEDPEVKFNWYVDGVEVHNAKTKPREEQYNSTYRVVSVLTVLHQDWLDGKEYKCKVSNKALPAPIEETISKAKGQPREPQVYTLPPSRDELTKNQVSLTCLVKGFYPSDIVVEWESNGQPENNYKTTPPVLDSDGSFFLYSKLTVDKSRWQQGNVFSCSVMHEALHYHYTQKSLSLSPGK
Reply: 5.7

Query: Give recorded Ratio/FWT. T4A_46 (other, EU numbering) CPPCTAPELLGGPSVFLFPPKPKDTLMISRTPEVTCVVVDVSHEDPEVKFNWYVDGVEVHNAKTKPREEQYNSTYRVVSVLTVLHQDWLNGKEYKCKVSNKALPAPIEKTISKAKGQPREPQVYTLPPSRDELTKNQVSLTCLVKGFYPSDIAVEWESNGQPEKNYKTTPPVLDSDGSFFLYSKLTVDKSRWQQGNVFSCSVMHEALHYHYTQKSLSLSPGK
Reply: 11.4

Query: Give recorded Ratio/FWT. C3A_39 (other, EU numbering) CPPCPVPELLGGPSVFLFPPKPKDTLMISRTPEVTCVVVDVSHEDPEVKFNWYVDGVEVHNAKTKPREEQYNSTYRVVSVLTVLHQDWLNGKEYKCKVSNKALPAPIEKTISKAKGEPREPQVYTLPPSRDELTKNQVSLTCLVKGFYPSDIAVEWESNGQPENNYKTTPPVLDSDGSFFLYSKLTVDKSRWQQGNVFSCSVMHEALHYHYTQKSLSLSPGK
Reply: 5.6

Query: Give recorded Ratio/FWT. C5A_65 (other, EU numbering) CPPCTAPELLGGPSVFLFPPKPKDTLMISRTPEVTCVVVDVSHEDPEVKFNWYVDGVEVHNAKTKPREEQYNSTYRVVSVLTVLHQDWLDGKEYKCKVSNKALPVPIEKTISKAKGQPREPQVYTLPPSRDELTKNQVSLTCLVKGFYPSDIAVEWESNGKPENNYKTTPPVLDSDGSFFLYSKLTVDKSRWQQGNVFSCSVMHEALHYHYTQKSLSLSPGK
Reply: 13.5
